The entries below come with measured GI50 values attached.
- Tested on: U-251
- Run Description: NCI tumour cell line growth inhibition, 48 h
Activity calls are given as the source filed them. Rule as the data show it: active = GI50 up to about 1.1 µM and inactive = higher.

# input Return reported GI50; argument: Cc1cccc(C)c1N1C(=O)C(=O)C(c2nc3ccccc3s2)/C(=N/NC(=O)c2ccccc2O)C1=O (stereo not given)
# output 20.6 µM (inactive)

# input Report GI50 for "CC(=O)/C(=C/NC(=S)Nc1ccccc1)C(=O)Nc1ccccc1C" please.
# output > 100 µM (inactive)

# input Can you share its GI50? I mean this molecule: "O=C1C=CC(=O)C12CCc1ccccc12"
# output > 100 µM (inactive)

# input Given the entry "CNC(=S)/N=C(\N)N(C)C" , report its measured GI50.
# output > 100 µM (inactive)

# input GET /values?readout=GI50&item= N=C(N)NCCCC(NC(=O)OCCCCCn1ccc(N)nc1=O)C(=O)O (stereo not given)
# output > 100 µM (inactive)

Cited source for all entries: ChEMBL document CHEMBL1201862
